# Test name: Acute oral toxicity in rats
# Type: in vivo
# Condition parameters: rat, in vivo, po, 4000 mg/kg, Percentage Mortality
Measured attribute: mortality at 24 h

[
  {
    "Molecule": "CSCCC(NC(C)=O)C(=O)Oc1ccc(NC(C)=O)cc1 (racemic)",
    "Measured attribute": "mortality at 24 h",
    "Result value": "0%"
  },
  {
    "Molecule": "CC(=O)Nc1ccc(O)cc1",
    "Measured attribute": "mortality at 24 h",
    "Result value": "70%"
  }
]

----------
# Test name: Acute oral toxicity in rats
# Type: in vivo
# Condition parameters: rat, in vivo, po, 4000 mg/kg, 4 g/kg oral, 10 F, 7 Days; read-out: Percentage Mortality

[
  {
    "Compound": "CC(=O)Nc1ccc(O)cc1 [NAPA, N-acetyl-para-aminophenol]",
    "mortality at 168 h / %": 70
  }
]
